pIC50: −log10 of the molar value.
UniProt Q9UBN7 data, read-out pIC50
Sequence (Q9UBN7 whole entry): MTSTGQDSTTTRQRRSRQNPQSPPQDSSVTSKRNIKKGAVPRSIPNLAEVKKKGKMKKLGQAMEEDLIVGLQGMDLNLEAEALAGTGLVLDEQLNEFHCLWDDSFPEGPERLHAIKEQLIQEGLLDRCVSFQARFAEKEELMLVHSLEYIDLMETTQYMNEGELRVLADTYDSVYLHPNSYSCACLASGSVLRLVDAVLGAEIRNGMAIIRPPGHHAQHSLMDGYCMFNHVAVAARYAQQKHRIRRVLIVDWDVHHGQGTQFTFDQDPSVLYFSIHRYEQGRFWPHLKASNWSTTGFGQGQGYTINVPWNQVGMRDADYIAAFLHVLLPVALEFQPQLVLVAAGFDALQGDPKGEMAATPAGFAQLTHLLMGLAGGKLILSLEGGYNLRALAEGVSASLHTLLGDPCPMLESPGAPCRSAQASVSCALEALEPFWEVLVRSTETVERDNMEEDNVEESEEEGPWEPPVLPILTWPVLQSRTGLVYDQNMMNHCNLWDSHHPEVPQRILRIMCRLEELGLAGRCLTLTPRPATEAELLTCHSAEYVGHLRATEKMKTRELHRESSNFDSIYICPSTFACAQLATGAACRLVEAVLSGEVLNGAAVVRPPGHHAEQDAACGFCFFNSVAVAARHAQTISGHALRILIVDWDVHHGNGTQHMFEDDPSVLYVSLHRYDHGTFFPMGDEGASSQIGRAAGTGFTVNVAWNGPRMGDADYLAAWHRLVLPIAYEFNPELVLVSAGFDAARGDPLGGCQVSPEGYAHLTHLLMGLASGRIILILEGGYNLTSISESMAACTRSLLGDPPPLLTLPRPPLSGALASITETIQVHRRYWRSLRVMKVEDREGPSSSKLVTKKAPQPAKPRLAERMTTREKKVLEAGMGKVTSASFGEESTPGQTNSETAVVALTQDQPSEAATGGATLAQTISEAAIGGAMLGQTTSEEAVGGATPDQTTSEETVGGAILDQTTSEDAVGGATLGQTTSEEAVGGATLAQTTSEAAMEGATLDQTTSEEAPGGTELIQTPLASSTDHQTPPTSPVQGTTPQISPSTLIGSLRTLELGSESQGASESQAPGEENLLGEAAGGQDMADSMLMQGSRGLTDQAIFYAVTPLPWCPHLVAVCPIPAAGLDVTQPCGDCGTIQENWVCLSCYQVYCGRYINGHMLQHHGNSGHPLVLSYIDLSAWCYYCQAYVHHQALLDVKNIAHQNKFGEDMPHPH
recorded.metric: pIC50

- O=C(NO)c1cnc2ccc(-c3ccncc3)cc2c1: > 7.00
- O=C(NO)c1cnc2ccc(NC(=O)c3ccccc3)cc2c1: > 7.00
- O=C(NO)c1cnc2cc(Nc3ccccc3)ccc2c1: > 7.00
- COc1ccc(C(=O)Nc2ccc3ncc(C(=O)NO)cc3c2)cc1: > 7.00
- O=C(NO)c1cnc2ccc(Nc3ccc(Cl)cc3)cc2c1: > 7.00
- O=C(NO)c1cnc2ccc(Oc3ccnc(NC(=O)C4CC4)c3)cc2c1: > 7.00
- O=C(NO)c1cnc2ccc(CCc3ccccc3)cc2c1: > 7.00
- O=C(NO)c1cnc2ccc(Oc3ccncc3)cc2c1: 6.30 to 7.00
- O=C(NO)c1cnc2ccc(NC(=O)C3CC3)cc2c1: > 7.00
- O=C(NO)c1cnc2cc(Nc3ccncc3)ccc2c1: > 7.00
- O=C(NO)c1cnc2ccc(-c3ccc(Cl)cc3)cc2c1: 6.30 to 7.00
- O=C(NO)c1cnc2cc(-c3ccc(Cl)cc3)ccc2c1: 6.30 to 7.00
